System: Aspergillus fumigatus
Experiment: In vitro antifungal activity against Aspergillus fumigatus
Assay type: functional
Settings: Aspergillus fumigatus; read-out: MIC

{"Compound": "CC(O)(c1ccc(Cl)cc1)C(O)(Cn1ccnc1)c1ccc(F)cc1 (configuration not stated)", "MIC": "> 100 µg/mL"}
{"Compound": "O=C(c1ccc(Cl)cc1Cl)C(O)(Cc1ccccc1)Cn1cncn1 (configuration not stated)", "MIC": "> 100 µg/mL"}
{"Compound": "O=C(c1ccc(Cl)cc1Cl)[C@@](O)(Cn1cncn1)c1ccc(Cl)cc1Cl", "MIC": "> 100 µg/mL"}
{"Compound": "O=C(c1ccc(F)cc1)C(O)(Cn1ccnc1)c1ccc(Cl)cc1Cl (configuration not stated)", "MIC": "> 100 µg/mL"}
{"Compound": "O=C(c1ccc(Cl)cc1Cl)C(O)(Cn1cnnc1)c1ccc(Cl)cc1Cl (configuration not stated)", "MIC": "> 100 µg/mL"}
{"Compound": "CC(O)(c1ccc(F)cc1)C(O)(Cn1ccnc1)c1ccc(Cl)cc1 (configuration not stated)", "MIC": "> 100 µg/mL"}
{"Compound": "COc1ccc(C(=O)C(O)(Cn2cncn2)c2ccc(OC)cc2)cc1 (configuration not stated)", "MIC": "> 100 µg/mL"}
{"Compound": "O=C(c1ccccc1Cl)C(O)(Cn1cncn1)c1ccc(Cl)cc1 (configuration not stated)", "MIC": "> 100 µg/mL"}
{"Compound": "CCCCC(=O)C(O)(Cn1cncn1)c1ccc(Cl)cc1Cl (configuration not stated)", "MIC": "> 100 µg/mL"}
{"Compound": "O=C(c1ccccc1)C(O)(Cn1cnnc1)c1ccccc1 (configuration not stated)", "MIC": "> 100 µg/mL"}
{"Compound": "CC(C)CC(=O)C(O)(Cn1cncn1)c1ccc(Cl)cc1 (configuration not stated)", "MIC": "50 µg/mL"}
{"Compound": "CC(O)(c1ccccc1)C(O)(Cn1cncn1)c1ccc(Cl)cc1Cl (stereo in doubt; 166)", "MIC": "12.5 µg/mL"}
{"Compound": "O=C(c1ccc(Cl)cc1)C(O)(Cn1ccnc1)c1ccc(Cl)cc1 (configuration not stated)", "MIC": "> 100 µg/mL"}
{"Compound": "CCCC[C@H]1OC(=O)O[C@]1(Cn1cncn1)c1ccc(Cl)cc1Cl", "MIC": "> 100 µg/mL"}
{"Compound": "CCCC(O)(Cn1cncn1)C(=O)c1ccc(Cl)cc1 (configuration not stated)", "MIC": "50 µg/mL"}
{"Compound": "OC(Cc1ccc(Cl)cc1)(c1ccccc1)C(O)(Cn1cncn1)c1ccc(Cl)cc1Cl (configuration not stated)", "MIC": "> 100 µg/mL"}
{"Compound": "CCCCC(O)(c1ccc(F)cc1)C(O)(Cn1cncn1)c1ccccc1Cl (stereo in doubt; 189)", "MIC": "50 µg/mL"}
{"Compound": "Cc1ccc(C(=O)C(O)(Cn2cncn2)c2ccc(C)cc2)cc1 (configuration not stated)", "MIC": "> 100 µg/mL"}
{"Compound": "Clc1ccc([C@@]2(Cn3cncn3)OCO[C@@H]2c2ccccc2)c(Cl)c1", "MIC": "12.5 µg/mL"}
{"Compound": "O=C(c1ccc(F)cc1)C(O)(Cn1cncn1)c1ccc(Cl)cc1Cl (configuration not stated)", "MIC": "> 100 µg/mL"}
{"Compound": "OC(c1ccccc1Cl)C(O)(Cn1cncn1)c1ccccc1Cl (configuration not stated)", "MIC": "6.3 µg/mL"}
{"Compound": "OC(Cn1cncn1)(c1ccc(Cl)cc1Cl)C(O)(c1ccc(F)cc1)c1cccs1 (configuration not stated)", "MIC": "> 100 µg/mL"}
